Origin of measurements: paper PMC6733935

tgt: BN/GRP receptor-positive T47D human breast cancer cells (Homo sapiens)
Construct: BN/GRP receptor-positive MDA-MB-231, MCF7, T47D human breast cancer, and PC3 human prostate cancer lines; intact cells
testDetails: Saturation binding assay on T47D cells
conditionParameters: ~300,000 cells, 0.1-25 nM radiopeptide, 60 min, room temperature, n = 3-5 experiments, mean ± SD
Numbered stars: 1 amine (or outer) side, 2 acyl side, 3 side chain; on linkers, the order of the positions; unused ones are H or OH. Square brackets hold non-standard residues; d marks the D form. Peptide text beside a SMILES is read from it. * marks the point of attachment. DOTA = O=C(O)CN1CCN(CC(=O)O)CCN(CC(=O)*)CCN(CC(=O)O)CC1; Cha = N[C@@H](CC1CCCCC1)C(=O)O; X1 = O=C(CCC(=O)[*:2])CN[*:1]; Nle = CCCC[C@H](N)C(=O)O; Ahx = NCCCCCC(=O)O
readoutName: pKd
Give bare numbers, as −log10 of the molar value.

* CCCC[C@H](NC(=O)[C@H](Cc1c[nH]cn1)NC(=O)[C@H](CC1CCCCC1)NC(=O)[C@@H](NC(=O)[C@H](C)NC(=O)[C@H](Cc1c[nH]c2ccccc12)NC(=O)[C@H](CCC(N)=O)NC(=O)[C@H](CS)NC(=O)CNC(=O)CNC(=O)CCCCCNC(=O)CN1CCN(CC(=O)O)CCN(CC(=O)O)CCN(CC(=O)O)CC1)C(C)C)C(=O)N[C@@H](CCSC)C(N)=O [^68Ga-DOTA-Ahx-BN Tris-, metal not drawn] ({DOTA-Ahx}-GGCQWAV[Cha]H[Nle]M-NH2) | 7.84
* CCCC[C@H](NC(=O)[C@H](Cc1c[nH]cn1)NC(=O)[C@H](CC1CCCCC1)NC(=O)[C@@H](NC(=O)[C@H](C)NC(=O)[C@H](Cc1c[nH]c2ccccc12)NC(=O)[C@H](CCC(N)=O)NC(=O)[C@H](CS)NC(=O)CNC(=O)CNC(=O)CCC(=O)CNC(=O)CN1CCN(CC(=O)O)CCN(CC(=O)O)CCN(CC(=O)O)CC1)C(C)C)C(=O)N[C@@H](CCSC)C(N)=O [^68Ga-DOTA-ALA-BN Cyclen, metal not drawn] ({DOTA}-[X1]GGCQWAV[Cha]H[Nle]M-NH2) | 7.81
* CCCC[C@H](NC(=O)[C@H](Cc1c[nH]cn1)NC(=O)[C@H](CC1CCCCC1)NC(=O)[C@@H](NC(=O)[C@H](C)NC(=O)[C@H](Cc1c[nH]c2ccccc12)NC(=O)[C@H](CCC(N)=O)NC(=O)[C@H](CS)NC(=O)CNC(=O)CNC(=O)CCC(=O)CNC(=O)CN1CCN(CC(=O)O)CCN(CC(=O)O)CCN(CC(=O)O)CC1)C(C)C)C(=O)N[C@@H](CCSC)C(N)=O [^68Ga-DOTA-ALA-BN Tris-, metal not drawn] ({DOTA}-[X1]GGCQWAV[Cha]H[Nle]M-NH2) | 7.80

Request: Fill in: pKd of CCCC[C@H](NC(=O)[C@H](Cc1c[nH]cn1)NC(=O)[C@H](CC1CCCCC1)NC(=O)[C@@H](NC(=O)[C@H](C)NC(=O)[C@H](Cc1c[nH]c2ccccc12)NC(=O)[C@H](CCC(N)=O)NC(=O)[C@H](CS)NC(=O)CNC(=O)CNC(=O)CCCCCNC(=O)CN1CCN(CC(=O)O)CCN(CC(=O)O)CCN(CC(=O)O)CC1)C(C)C)C(=O)N[C@@H](CCSC)C(N)=O [^68Ga-DOTA-Ahx-BN Cyclen, metal not drawn] ({DOTA-Ahx}-GGCQWAV[Cha]H[Nle]M-NH2) is ___
Response: 7.82
